Tested on: influenza virus A/Puerto Rico/8/34 (H1N1)
pIC50: −log10 of the molar value.
Measured Attribute: pIC50

QUERY: Report pIC50 for CSc1ccc(-c2c(C(F)(F)F)n(C)n(-c3ccccc3)c2=O)cc1
RESULT: < 4.04

###

Assay Overview: in vitro
Conditions: dog, CC50, MDCK cell line, MTT, 72 h
Measured Attribute: CC50 (µM)
Give just the number in µM; leave the unit off.

Mol | Measured Attribute | Assay Result
CSc1ccc(-c2c(C(F)(F)F)n(C)n(-c3ccccc3)c2=O)cc1 | CC50 | 263

QUERY: Name the recorded CC50 of the compound listed here: Cn1c(C(F)(F)C(F)(F)F)c(I)c(=O)n1-c1ccccc1
RESULT: 378

###

Assay Overview: in vitro
Conditions: dog
Measured Attribute: CC50

QUERY: Consider the compound NC(=O)c1ncn([C@@H]2O[C@H](CO)[C@@H](O)[C@H]2O)n1 [Ribavirin, reference compound] and give its recorded CC50.
RESULT: > 2130 µM

###

System: MDCK cell line
Conditions: MTT, 72 h
Measured Attribute: CC50

QUERY: Look up and state reported CC50 for Cn1c(C(F)(F)F)c(C#Cc2ccccc2)c(=O)n1-c1ccccc1
RESULT: > 877 µM

Cited source for all entries: paper PMC9042801
